Tested on: cultured cerebral cortex neurons
test.protocol: 3H-GABA release, cultured cerebral cortex neurons
Format: cell-based
condition.set: Cerebral cortex neuron; inhibition of stimulated 3H-GABA release, mouse cortical neurons, Table 1
pIC50: −log10 of the molar value.
measured.property: pIC50

// below: answered compounds
CCN(CC)CCN(CCN(CC)CC)S(=O)(=O)c1ccc(-c2cc3c(c4c2CCN(C)C4)NC(=O)C3=NO)cc1: 6.35
CCOC(=O)c1ccc(-c2cc3c(c4c2CCN(C)C4)NC(=O)C3=NO)cc1: 5.43
CN1CCc2c(-c3ccc(S(N)(=O)=O)cc3)cc3c(c2C1)NC(=O)C3=NO: 6.57

[P] CN1CCc2c(-c3ccc(S(=O)(=O)N4CCN(c5ccc(Cl)cc5)CC4)cc3)cc3c(c2C1)NC(=O)C3=NO
[Q] CCN1Cc2c(-c3ccc(S(=O)(=O)N(C)C)cc3)cc3c(c2C1)NC(=O)C3=NO
[ask] Pick the one with the larger pIC50: P vs Q // return label of chosen record
[reply] P
(P: 6.06, Q: 5.35)
